// data source = paper PMC5454392

Provide the recorded binding score for the entries that follow.
Target: T1, CaBdf1 BD2 (GST-tagged, wild-type) (Candida albicans (strain SC5314 / ATCC …, UniProt Q5A4W8))
T1 chain: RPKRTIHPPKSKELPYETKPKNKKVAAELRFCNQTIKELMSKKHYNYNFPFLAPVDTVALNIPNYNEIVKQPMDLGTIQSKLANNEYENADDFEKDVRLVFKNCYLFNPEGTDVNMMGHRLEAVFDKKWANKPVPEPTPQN
Assay: histone peptide array (Active Motif MODified), 1 uM GST-tagged bromodomain, anti-GST detection, normalized mean intensity
Answer as a number with no unit attached.

Need binding score of ARTKQTARKSTGGKAPRKQ (A Rme2a T Kme3 Q T A Rme2s Kme1 S T G G K A P R K Q) , thanks. 0.00407

Entry ARTKQTARKSTGGKAPRKQ (A R T K Q T A Rme2s K S T G G K A P R K Q) please 0.00148

Ok, now ARTKQTARKSTGGKAPRKQ (A Rme2s T Kac Q T A Rme2s Kac S T G G K A P R K Q) 0.00629

What do you have for ARTKQTARKSTGGKAPRKQ (A R T Kac Q T A Rme2a Kac S T G G K A P R K Q) ? 0.0126
